Assay: activity coefficient (dimensionless); of the first substance listed, at infinite dilution; xn = mol fraction of the nth substance listed
Settings: 333.15 K; Liquid; Chromatography; x1 = 0
Each entry falls in a class defined on activity coefficient; the bands are low group = under 0.7, middle group = from 0.7 up to 5, high group = 5 and over

Cc1ccc(C)cc1 [1,4-dimethylbenzene] + CCCCCCCCn1cc[n+](COCCCOC[n+]2ccn(CCCCCCCC)c2C)c1C.N#C[N-]C#N.N#C[N-]C#N
middle group
Cc1ccccc1C [1,2-dimethylbenzene] + CCCOC[n+]1ccc(N(C)C)cc1.O=S(=O)([N-]S(=O)(=O)C(F)(F)F)C(F)(F)F
middle group

Below: the item to evaluate.
State the band of C#CCCCC [1-hexyne] + CCCOC[n+]1ccn(C)c1.O=S(=O)([N-]S(=O)(=O)C(F)(F)F)C(F)(F)F
middle group
